Values from patent US20260108546A1

Quick reference: Emax of the listed items.
# ASSAYED SYSTEM: hGIP-R (Homo sapiens, UniProt P48546)
# Construct: expressed in transfected cells; host or cells: HEK-293 clonal cell lines
# Sequence (P48546 22-466): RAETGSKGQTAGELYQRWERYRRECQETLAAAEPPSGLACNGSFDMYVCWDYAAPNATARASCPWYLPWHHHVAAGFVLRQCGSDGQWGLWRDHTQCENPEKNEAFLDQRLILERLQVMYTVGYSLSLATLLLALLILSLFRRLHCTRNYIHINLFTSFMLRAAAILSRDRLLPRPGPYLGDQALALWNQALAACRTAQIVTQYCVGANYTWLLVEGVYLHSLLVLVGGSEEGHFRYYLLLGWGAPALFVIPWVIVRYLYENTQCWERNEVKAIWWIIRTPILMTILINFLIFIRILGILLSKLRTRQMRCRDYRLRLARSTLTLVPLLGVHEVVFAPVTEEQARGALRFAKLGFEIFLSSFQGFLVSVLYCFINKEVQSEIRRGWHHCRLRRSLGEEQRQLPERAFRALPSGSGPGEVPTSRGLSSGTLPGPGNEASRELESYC
# EXPERIMENTAL DETAILS: Functional hGIP-R Assay (cAMP formation, HTRF)
# Assay type: cell-based
# STUDY CONDITIONS: cAMP efficacy; percent of maximal response to GIP(1-42)OH; 37° C., 0.1% bovine casein; arithmetic mean ± SEM
Numeric only. Scale: %

Use the examples below as a reference point.
* Cc1ncc(-c2cc(C(F)(F)F)nn2CC(C)(C)NC(=O)[C@@H](Cc2cnn(C)c2)NC(=O)[C@H]2C[C@@H]2c2ccc(-c3cnc4nn(C)cc4c3)cc2)[nH]1 | 117
* CNC(=O)Cn1cc(-c2cc(C(F)(F)F)nn2CC(C)(C)NC(=O)[C@@H](Cc2cnn(C(F)F)c2)N2CC[C@@]3(C[C@@H]3c3ccc(-c4cnc5nn(C)cc5c4)cc3)C2=O)cn1 | 56.1

Please turn your attention to the following entry.
Give recorded Emax. CN(C(=O)[C@H]1C[C@@H]1c1ccc(-c2cnc3nn(C)cc3c2)cc1)[C@H](Cc1cnn(C)c1)C(=O)NC(C)(C)Cn1nc(C(F)(F)F)cc1-c1cn[nH]n1
102

* * *

# ASSAYED SYSTEM: hGIP-R (Homo sapiens, UniProt P48546)
# Construct: expressed in transfected cells; host or cells: HEK-293 clonal cell lines
# EXPERIMENTAL DETAILS: Functional hGIP-R Assay (cAMP formation, HTRF)
# Format: cell-based
# STUDY CONDITIONS: cAMP potency; HEK-293 cells expressing hGIP-R; incubated at 37° C. in the presence of 0.1% bovine casein; geometric mean; read-out: Human GIP-R EC50, nM (SEM, n)
QUANTITY: EC50
Write the numeric value and append its unit.

Use the examples below as a reference point.
• CN(C)Cc1ccc(-c2cc(C(F)(F)F)nn2CC(C)(C)NC(=O)[C@@H](Cc2cnn(C(F)F)c2)N2CC[C@@]3(C[C@@H]3c3ccc(-c4cnc5nn(C)cc5c4)cc3F)C2=O)cn1 = 5.61 nM
• Cn1cc(C[C@@H](NC(=O)[C@H]2C[C@@H]2c2ccc(-c3cnc4nn(C)cc4c3)cc2)C(=O)NC(C)(C)Cn2nc(C(F)F)cc2-c2cn[nH]n2)cn1 = 122 nM
• [2H]C([2H])([2H])n1cc(C[C@H](C(=O)NC(C)(C)Cn2nc(C(F)(F)F)cc2-c2ccc(C(C)(C)OP(=O)(O)O)nc2)N2CC[C@@]3(C[C@@H]3c3ccc(-c4cnc5nn(C)cc5c4)cc3Cl)C2=O)cn1 = 2.36 nM

Please turn your attention to the following entry.
Give recorded EC50. [2H]C([2H])([2H])N(C(=O)C1CC1(C)c1ccc(-c2cnc3nn(C)cc3c2)cc1F)[C@H](Cc1cnn(C(F)F)c1)C(=O)NC(C)(C)Cn1nc(C(F)(F)F)cc1-c1cc(F)c(=O)n(C)c1 (single isomer, unassigned; isomer 1)
51.7 nM

* * *

Quick reference: EC50 of the listed items.
# ASSAYED SYSTEM: hGIP-R (Homo sapiens)
# Construct: expressed in transfected cells; host or cells: HEK-293 clonal cell lines
# EXPERIMENTAL DETAILS: Functional hGIP-R Assay (cAMP formation, HTRF)
# Type: cell-based
# STUDY CONDITIONS: cAMP potency; HEK-293 cells expressing hGIP-R; incubated at 37° C. in the presence of 0.1% bovine casein; geometric mean; read-out: Human GIP-R EC50, nM (SEM, n)
Numeric only. Scale: nM

Give recorded EC50. CN(C(=O)[C@H]1C[C@@H]1c1ccc(NC(=O)Nc2ccc(F)cc2)cc1)[C@H](Cc1cnn(C)c1)C(=O)NC(C)(C)Cc1ccc(F)cc1
104

Give recorded EC50. Cn1cc2cc(-c3ccc([C@H]4C[C@@]45CCN([C@H](Cc4cnn(C(F)F)c4)C(=O)NC(C)(C)Cn4nc(C(F)(F)F)cc4-c4ccc(C(N)=O)[nH]c4=O)C5=O)cc3)cnc2n1
20.3

Give recorded EC50. CC(C)(Cn1cc(C(F)(F)F)cn1)NC(=O)[C@@H](Cc1cnc2ncccn12)NC(=O)[C@H]1C[C@@H]1c1ccc(-c2cnc3nc(C(F)F)cn3c2)cc1
25.1

Give recorded EC50. Cn1cc(C[C@@H](NC(=O)[C@H]2C[C@@H]2c2ccc(-c3cnc4nn(C)cc4c3)cc2)C(=O)NC(C)(C)Cn2nc(C(F)(F)F)cc2-c2ccn(C)c(=O)c2)cn1
53
